Here, each record is paired with measured SI Axenic amastigote forms data.
tested on: L. braziliensis axenic amastigote forms; experiment: Axenic amastigote forms assay; type: cell-based, Leishmania braziliensis; conditions: IC50 macrophages/IC50 parasite form

Use the examples below as a reference point.
compound=O=c1c(O[C@@H]2O[C@H](CO)[C@@H](O)[C@H](O)[C@H]2O)c(-c2ccc(O)cc2)oc2cc(O)cc(O)c12 result=10.4
compound="C[C@H]1O[C@H](Oc2cc(O)c3c(=O)c(O[C@@H]4O[C@H](CO)[C@@H](O)[C@H](O)[C@H]4O)c(-c4ccc(O)c(O)c4)oc3c2)[C@@H](O)[C@@H](O)[C@@H]1O [Compound 7, petiolaroside]" result=>51.3
compound="CC(=O)OC[C@H]1O[C@@H](Oc2c(-c3ccc(OC(C)=O)c(OC(C)=O)c3)oc3cc(O[C@@H]4O[C@@H](C)[C@H](OC(C)=O)[C@@H](OC(C)=O)[C@H]4OC(C)=O)cc(OC(C)=O)c3c2=O)[C@H](OC(C)=O)[C@@H](OC(C)=O)[C@@H]1OC(C)=O [Compound 9, petiolaroside decacetate]" result=19.9

Continue with the compound presented below.
Recorded result, `CC(=O)OC[C@H]1O[C@@H](Oc2cc(OC(C)=O)c3c(=O)c(O[C@@H]4O[C@H](COC(C)=O)[C@@H](OC(C)=O)[C@H](OC(C)=O)[C@H]4OC(C)=O)c(-c4ccc(OC(C)=O)cc4)oc3c2)[C@H](OC(C)=O)[C@@H](OC(C)=O)[C@@H]1OC(C)=O` , SI Axenic amastigote forms: >35.7
